# Assay Info: chemical genetic growth profiling, strain panel (AID 1159580);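 further: tested at 20 µM; growth read once vehicle control cultures reached saturation at 30 °C; 1 = growth at the plate median or of vehicle wells; lower values mean less growth of the strain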
# Experimental Conditions: S. cerevisiae deletion strains, growth OD, locus YLR342W, strain FKS1, hits give low values
In all, about 5,500 compounds went through this assay and about 2,000 (36%) were called active. About 18% were inconclusive and are not listed. Some of the results follow.
Observation Type: normalized growth

*Q* Fill in reported normalized growth for this entry: `CC(C)NNC(=O)c1ccncc1`
*A* 0.986 (inactive)

*Q* Fill in reported normalized growth for this entry: `O=C(O)c1ccccc1-c1c2cc(Br)c(=O)cc-2oc2[c]([Hg])c(O)c(Br)cc12`
*A* 1.02 (inactive)

*Q* Fill in reported normalized growth for this entry: C[N+]1(C)C2CC(OC(=O)[C@@H](CO)c3ccccc3)CC1C1OC12 (stereo partly drawn)
*A* 0.962 (inactive)

*Q* Fill in reported normalized growth for this entry: CO/N=C(\C(=O)NC1C(=O)N2C(C(=O)OC(C)OC(C)=O)=C(COC(N)=O)CSC12)c1ccco1 (stereo not drawn)
*A* 0.988 (inactive)

*Q* Fill in reported normalized growth for this entry: `Cc1coc2c1C(=O)C(=O)c1c-2ccc2c1CCCC2(C)C`
*A* 0.904 (active)

*Q* Fill in reported normalized growth for this entry: `COc1ccc2c(c1)O[C@H]1c3ccc(OC)cc3OC[C@@H]21`
*A* 1.02 (inactive)

*Q* Fill in reported normalized growth for this entry: CC(C)NCC(O)c1cc(O)cc(O)c1 (stereo not drawn)
*A* 0.987 (inactive)

*Q* Fill in reported normalized growth for this entry: C=C1CCC2C(CC2(C)C)C(=O)CCC1O (stereo not drawn)
*A* 0.997 (inactive)

*Q* Fill in reported normalized growth for this entry: C=C1CCC(C2CC(=O)OC2=O)C(=O)CCC2C1CC2(C)C (stereo not drawn)
*A* 1 (inactive)

*Q* Fill in reported normalized growth for this entry: `C[C@H]1CC[C@@H](C(C)(C)O)CC2=C1CC[C@@H]2C`
*A* 0.989 (inactive)

*Q* Fill in reported normalized growth for this entry: `COc1ccc([C@H]2Oc3cc(OC)cc(OC)c3C[C@H]2O)cc1`
*A* 0.994 (inactive)

*Q* Fill in reported normalized growth for this entry: `Cc1c(S(=O)(=O)O)oc2c1C(=O)C(=O)c1c-2ccc2c1CCCC2(C)C`
*A* 0.916 (inactive)

*Q* Fill in reported normalized growth for this entry: `CO/N=C(\C(=O)N[C@@H]1C(=O)N2C(C(=O)O)=C(COC(C)=O)CS[C@H]12)c1csc(N)n1`
*A* 0.994 (inactive)

*Q* Fill in reported normalized growth for this entry: C=C1CCC(OC(C)=O)/C(C)=C/C[C@@H]2[C@@H]1CC2(C)C (stereo partly drawn)
*A* 1.01 (inactive)

*Q* Fill in reported normalized growth for this entry: `Cc1cccc(C)c1NC1=NCCCS1`
*A* 0.998 (inactive)

*Q* Fill in reported normalized growth for this entry: `N[C@@H](CC(=O)N1CCn2c(nnc2C(F)(F)F)C1)Cc1cc(F)c(F)cc1F`
*A* 0.958 (inactive)

*Q* Fill in reported normalized growth for this entry: CO/N=C(\C(=O)NC1C(=O)N2C(C(=O)O)=C(COC(N)=O)CSC12)c1ccco1 (stereo not drawn)
*A* 0.972 (inactive)

*Q* Fill in reported normalized growth for this entry: `O=C(Cn1ccnc1[N+](=O)[O-])NCCO`
*A* 1.02 (inactive)

*Q* Fill in reported normalized growth for this entry: `Clc1cccc(Cl)c1NC1=NCCN1`
*A* 0.995 (inactive)

*Q* Fill in reported normalized growth for this entry: `CC(C)[C@@H]1CC[C@@H](C)C[C@H]1O`
*A* 0.986 (inactive)

*Q* Fill in reported normalized growth for this entry: C=C1C(=O)OC2CC1C(OC(C)=O)C/C(C)=C/CC/C(C)=C/CC[C@]2(C)O (stereo partly drawn)
*A* 0.995 (inactive)

*Q* Fill in reported normalized growth for this entry: `O=C1OC(c2ccc(O)cc2)(c2ccc(O)cc2)c2ccccc21`
*A* 0.994 (inactive)

*Q* Fill in reported normalized growth for this entry: `Cc1cc(-c2ccccc2)nnc1NCCN1CCOCC1`
*A* 0.983 (inactive)

----------
Hi there, I'd appreciate the recorded normalized growth for every entry that follows.
# Assay Info: chemical genetic growth profiling, strain panel (AID 1159580);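 further: tested at 20 µM; growth read once vehicle control cultures reached saturation at 30 °C; 1 = growth at the plate median or of vehicle wells; lower values mean less growth of the strain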
# Experimental Conditions: S. cerevisiae deletion strains, growth OD, locus YER111C, strain swi4, hits give low values
The whole screen tested about 5,500 compounds, of which about 2,000 (36%) were called active. Another 18% or so got no clear call; they are omitted. The list shows a part of the results.
// keep it numeric: no unit symbol after the value

*Q* Fill in reported normalized growth for this entry: `Cn1c(=O)c2[nH]cnc2n(C)c1=O`
*A* 1

*Q* Fill in reported normalized growth for this entry: `CCCOc1ccc(C(=O)OCCN(CC)CC)cc1N`
*A* 0.999

*Q* Fill in reported normalized growth for this entry: `CC[N+](CC)(CC)CCOc1cccc(OCC[N+](CC)(CC)CC)c1OCC[N+](CC)(CC)CC`
*A* 1.02

*Q* Fill in reported normalized growth for this entry: `CCCCOC(=O)c1ccc(N)cc1`
*A* 0.896

*Q* Fill in reported normalized growth for this entry: C[N+]1(C)C2CC(OC(=O)[C@@H](CO)c3ccccc3)CC1C1OC12 (some centres not stated)
*A* 0.985

*Q* Fill in reported normalized growth for this entry: CC1=CC2C(CC1=O)C(C)=CCC2C(C)C (configuration not stated)
*A* 0.996

*Q* Fill in reported normalized growth for this entry: NS(=O)(=O)c1cc2c(cc1Cl)NC(C(Cl)Cl)NS2(=O)=O (configuration not stated)
*A* 0.982

*Q* Fill in reported normalized growth for this entry: `Oc1ccc(Cl)cc1Cc1cc(Cl)ccc1O`
*A* 0.0777

*Q* Fill in reported normalized growth for this entry: CC(C)C(C)/C=C/C(C)[C@H]1CCC2C3=CCC4CC(=O)CC[C@]4(C)C3CC[C@@]21C (some centres not stated)
*A* 1

*Q* Fill in reported normalized growth for this entry: C#CCCCCCCCCCCCC(=O)CC(O)COC(C)=O (configuration not stated)
*A* 0.964

*Q* Fill in reported normalized growth for this entry: `COc1c2ccoc2c(OC)c2oc(=O)ccc12`
*A* 0.987

*Q* Fill in reported normalized growth for this entry: CC(=O)OCC(OC(C)=O)C(OC(C)=O)C(OC(C)=O)C(OC(C)=O)C(COC(C)=O)OC(C)=O (configuration not stated)
*A* 0.985

*Q* Fill in reported normalized growth for this entry: `CCOC(=O)c1ccc(O)cc1`
*A* 1.01

*Q* Fill in reported normalized growth for this entry: C=C1C(=O)O[C@@H]2C3O[C@]3(C)CC/C=C(\C)CC[C@@H]12 (some centres not stated)
*A* 0.992

*Q* Fill in reported normalized growth for this entry: C=CCCCCCCCCCCCC(O)CC(O)COC(C)=O (configuration not stated) (tested in a mixture with another compound)
*A* 0.947

*Q* Fill in reported normalized growth for this entry: CC(C)C(C)/C=C/C(C)C1CCC2C3=CC=C4CC(O)CCC4(C)C3CCC21C (configuration not stated)
*A* 0.982

*Q* Fill in reported normalized growth for this entry: `CCCCOC(=O)c1ccccc1C(=O)OCCCC`
*A* 0.999

*Q* Fill in reported normalized growth for this entry: CC(=O)OC1CCC2(C)C(=CC=C3C2CCC2(C)C3CCC2C(C)/C=C/C(C)C(C)C)C1(C)C (configuration not stated)
*A* 1.02

*Q* Fill in reported normalized growth for this entry: `CC(C)NC[C@H](O)COc1cccc2ccccc12`
*A* 0.986

*Q* Fill in reported normalized growth for this entry: CC(C)NCC(O)COc1cccc2ccccc12 (configuration not stated)
*A* 1.03

*Q* Fill in reported normalized growth for this entry: `NC(N)=NS(=O)(=O)c1ccc(N)cc1`
*A* 0.993

*Q* Fill in reported normalized growth for this entry: `CO/N=C(\C(=O)N[C@@H]1C(=O)N2C(C(=O)O)=C(CSc3nc(=O)c(O)nn3C)CS[C@H]12)c1csc(N)n1`
*A* 0.979

----------
# Assay Info: chemical genetic growth profiling, strain panel (AID 1159580);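 further: tested at 20 µM; growth read once vehicle control cultures reached saturation at 30 °C; 1 = growth at the plate median or of vehicle wells; lower values mean less growth of the strain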
# Experimental Conditions: S. cerevisiae deletion strains, growth OD, locus YOL078W, strain AVO1, hits give low values
In all, about 5,500 compounds went through this assay and about 2,000 (36%) were called active. Roughly 18% stayed inconclusive and do not appear here. The list shows a part of the results.
Hi there, I'd appreciate the recorded normalized growth for every entry that follows.
// keep it numeric: no unit symbol after the value

*Q* Fill in reported normalized growth for this entry: `CC(C)(C)c1ccc(C(=O)Nc2ccc(C(F)(F)F)cc2)s1`
*A* 0.989

*Q* Fill in reported normalized growth for this entry: `Cc1ccc(NC(=O)c2ccccc2N=Cc2cc(Cl)cc(Cl)c2O)c(N=Cc2cc(Cl)cc(Cl)c2O)c1`
*A* 0.928

*Q* Fill in reported normalized growth for this entry: `CC1(C)OC(=O)C(=Cc2cccn2-c2ccc(OC(F)(F)F)cc2)C(=O)O1`
*A* 0.973

*Q* Fill in reported normalized growth for this entry: `ClC1=C(C=Nc2ccc(Cl)cc2)CSc2ccc(Cl)cc21`
*A* 0.937

*Q* Fill in reported normalized growth for this entry: `O=C(Nc1ccc(OC(F)(F)F)cc1)OC1CN(C(c2ccccc2)c2ccccc2)C1`
*A* 1

*Q* Fill in reported normalized growth for this entry: `OC(=Cc1nc2ccccc2nc1C=C(O)c1ccc(Cl)cc1)c1ccc(Cl)cc1`
*A* 0.982

*Q* Fill in reported normalized growth for this entry: `O=C(Nc1ccc(OC(F)(F)F)cc1)N1CCN(c2nc(-c3ccccc3)ns2)CC1`
*A* 0.997

*Q* Fill in reported normalized growth for this entry: `CCc1ccn2cc(Nc3ccccc3Cl)nc2c1`
*A* 0.981

*Q* Fill in reported normalized growth for this entry: `O=[N+]([O-])c1ccc(Sc2ssc(=S)c2-c2ccccc2)nc1`
*A* 0.928

*Q* Fill in reported normalized growth for this entry: `N#CC(C#N)=Cc1ccc(-c2ccccc2C(F)(F)F)o1`
*A* 0.939

*Q* Fill in reported normalized growth for this entry: OC(CN1CCN(c2nc3ccc(Cl)cc3s2)CC1)Cn1ccc2ccccc21 (configuration not stated)
*A* 0.976

*Q* Fill in reported normalized growth for this entry: `Cc1ccc(NS(=O)(=O)c2ccc(Cl)cc2)c(N=Cc2cc(Cl)cc(Cl)c2O)c1`
*A* 0.962

*Q* Fill in reported normalized growth for this entry: `CC(=O)Nc1ccc(S(=O)(=O)Nc2ccccc2Oc2ccc(Cl)cc2Cl)cc1`
*A* 0.995

*Q* Fill in reported normalized growth for this entry: `CCCCCCCCCCCC(=O)NOC(=O)c1c(-c2c(Cl)cccc2Cl)noc1C`
*A* 0.98

*Q* Fill in reported normalized growth for this entry: `CC(C)(C)c1ccc(C(=O)NNc2c(Cl)cccc2Cl)cc1`
*A* 0.967

*Q* Fill in reported normalized growth for this entry: `CC1(C)OC(=O)C(=Cc2cccn2-c2ccc(C(F)(F)F)cc2)C(=O)O1`
*A* 1.01

*Q* Fill in reported normalized growth for this entry: `Cc1ccc(NNC(=O)c2c(C)noc2C)cc1Cl`
*A* 0.98

*Q* Fill in reported normalized growth for this entry: O=[N+]([O-])c1ccc2oc(C(O)c3ccc(-c4ccccc4)cc3)cc2c1 (configuration not stated)
*A* 0.993

*Q* Fill in reported normalized growth for this entry: `Cc1cccc(NC(=S)NNC(=O)CSCc2cccc3ccccc23)c1`
*A* 0.988

*Q* Fill in reported normalized growth for this entry: `Cc1onc(-c2c(Cl)cccc2Cl)c1C(=O)NC(C)(C)CC(C)(C)C`
*A* 0.992

*Q* Fill in reported normalized growth for this entry: `Cc1onc(-c2c(F)cccc2Cl)c1C(=O)NNc1cc(Cl)cc(Cl)c1`
*A* 0.978

*Q* Fill in reported normalized growth for this entry: `Cc1onc(-c2c(F)cccc2Cl)c1C(=O)ON=C1C2CC3CC(C2)CC1C3`
*A* 1.05

Measured values drawn from PubChem BioAssay AID1159580 for this set.
